Record form. Attribute: inhibition at 0.01 µM. Fill in for each entry.
target: Androgen Receptor (AR) protein (Homo sapiens, UniProt P10275, T878A); construct: endogenous in cells; host or cells: LNCaP; test: Androgen Receptor (AR) protein degradation assay in LNCaP cells, western blotting; format: cell-based; details: 20 h, 0.01 μM compound
Sequence (P10275 whole entry T878A): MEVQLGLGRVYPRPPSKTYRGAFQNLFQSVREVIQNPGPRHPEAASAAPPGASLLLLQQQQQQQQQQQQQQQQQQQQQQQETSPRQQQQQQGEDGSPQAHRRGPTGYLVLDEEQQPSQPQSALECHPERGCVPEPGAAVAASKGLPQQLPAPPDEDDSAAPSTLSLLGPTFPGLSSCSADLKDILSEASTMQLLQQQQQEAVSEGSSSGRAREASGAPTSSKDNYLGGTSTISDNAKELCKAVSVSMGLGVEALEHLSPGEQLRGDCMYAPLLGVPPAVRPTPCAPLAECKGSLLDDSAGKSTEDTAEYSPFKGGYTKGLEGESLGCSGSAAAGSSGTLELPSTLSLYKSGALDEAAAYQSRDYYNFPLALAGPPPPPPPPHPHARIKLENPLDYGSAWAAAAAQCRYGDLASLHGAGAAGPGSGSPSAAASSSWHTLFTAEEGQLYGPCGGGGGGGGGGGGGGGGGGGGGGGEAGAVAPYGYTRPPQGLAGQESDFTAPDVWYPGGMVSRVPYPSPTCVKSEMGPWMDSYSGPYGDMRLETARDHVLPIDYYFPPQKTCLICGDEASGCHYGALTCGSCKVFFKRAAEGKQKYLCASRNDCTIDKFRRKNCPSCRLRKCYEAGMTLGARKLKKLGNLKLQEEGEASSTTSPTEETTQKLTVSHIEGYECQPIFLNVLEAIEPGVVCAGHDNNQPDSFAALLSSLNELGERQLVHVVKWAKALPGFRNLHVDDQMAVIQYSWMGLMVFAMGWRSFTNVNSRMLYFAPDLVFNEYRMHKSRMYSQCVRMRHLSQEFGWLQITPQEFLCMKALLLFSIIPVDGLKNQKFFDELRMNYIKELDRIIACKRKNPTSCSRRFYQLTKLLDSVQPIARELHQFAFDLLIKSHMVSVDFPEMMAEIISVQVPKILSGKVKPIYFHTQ
Sequence (Q96SW2 whole entry partner): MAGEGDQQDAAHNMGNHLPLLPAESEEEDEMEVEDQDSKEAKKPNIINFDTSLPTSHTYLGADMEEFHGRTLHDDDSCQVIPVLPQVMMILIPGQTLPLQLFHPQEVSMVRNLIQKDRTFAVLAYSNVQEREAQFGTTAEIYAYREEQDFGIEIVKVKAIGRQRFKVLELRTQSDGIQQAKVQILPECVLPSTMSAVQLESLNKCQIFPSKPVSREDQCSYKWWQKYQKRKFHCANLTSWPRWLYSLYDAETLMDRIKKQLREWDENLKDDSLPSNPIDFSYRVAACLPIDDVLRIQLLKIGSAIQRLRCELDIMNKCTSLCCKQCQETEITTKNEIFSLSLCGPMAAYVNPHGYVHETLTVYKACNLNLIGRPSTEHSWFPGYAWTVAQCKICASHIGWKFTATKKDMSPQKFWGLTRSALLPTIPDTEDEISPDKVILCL
Your answer is read as %, so omit the unit and give the number.

I'd like to know its inhibition at 0.01 µM. The compound in question is N#Cc1ccc(N2CCC(C(=O)Nc3ccc(N4CCC(CN5CCN(C[C@@H]6CCCN(c7ccc8c(c7)C(=O)N(C7CCC(=O)NC7=O)C8=O)C6)CC5)CC4)cn3)CC2)cc1C(F)(F)F (some centres unmarked) [Example 17]
44

I'd like to know its inhibition at 0.01 µM. The compound in question is N#Cc1ccc(N2CCC(C(=O)Nc3ccc(C#CC4CCN(CC5CCN(c6ccc7c(c6)C(=O)N(C6CCC(=O)NC6=O)C7=O)CC5)CC4)cn3)CC2)cc1C(F)(F)F (centres unmarked) [Example 131]
28

I'd like to know its inhibition at 0.01 µM. The compound in question is N#Cc1ccc(N2CCC(C(=O)Nc3ccc(OCCN4CCN(CC(=O)Nc5cccc(NC6CCC(=O)NC6=O)c5)CC4)cn3)CC2)cc1C(F)(F)F (centres unmarked) [Example 176]
-2

I'd like to know its inhibition at 0.01 µM. The compound in question is N#Cc1ccc(N2CCC(C(=O)Nc3ccc(N4CCN(CCCCOc5ccc6c(c5)C(=O)N(C5CCC(=O)NC5=O)C6=O)CC4)cn3)CC2)cc1C(F)(F)F (centres unmarked) [Example 115]
18

I'd like to know its inhibition at 0.01 µM. The compound in question is CC1(CN2CCC(COc3ccc4c(c3)C(=O)N(C3CCC(=O)NC3=O)C4=O)CC2)CN(c2ccc(NC(=O)C3CCN(c4ccc(C#N)c(C(F)(F)F)c4)CC3)nc2)C1 (centres unmarked) [Example 180]
36
